Numbers sourced from ChEMBL document CHEMBL3988442.

Target: Shiga toxin 2 (Escherichia coli O157:H7) (UniProt P09385+P09386)
Experiment: E. coli 0.157:H7 Shiga Toxin SOP - stx2 screening assay
Assay type: functional
Parameters: scale not given: direction of the effect not stated beside the values
Settings: 30 µM
parameter: Percent Effect (%)
Output spec: scalar in %, unitless text.

compound="CC(NC(=O)NCCCN(C)S(C)(=O)=O)c1cccc(Cl)c1 (stereo not given)" parameter="Percent Effect" endpoint_unit=% reported_value=-9.29
compound=O=C(O)[C@@H]1CN(C(=O)c2ccc3[nH]nnc3c2)C[C@H]1c1cccc(F)c1 parameter="Percent Effect" endpoint_unit=% reported_value=-15.6

The reported Percent Effect of the compound COc1ccc(CNC(=O)Nc2cccnc2N2CCCC2)cc1O was 10.6

Field Percent Effect (entry CC(C)Oc1cccc(CNC(=O)NC(C)(C(=O)O)c2ccco2)c1 (stereo not given) ) reads 25.1

Record summary for CCNc1cc2c(nn1)CCN(C(=O)c1cccc3c1OCCO3)C2 : reported Percent Effect = -25.7

###

Percent Effect by entry:
Target: Shiga toxin 2 (Escherichia coli O157:H7) (UniProt P09385+P09386)
Assay: E. coli 0.157:H7 Shiga Toxin SOP - stx2 screening assay
Format: functional
Set-up: scale not given: direction of the effect not stated beside the values
Settings: 30 µM
Give your result in % as a bare value.

Some compounds with known Percent Effect results, for comparison:
compound=Cc1ccc2c(c1)C1(CCNCC1)CN2C(=O)CN(C)C parameter="Percent Effect" reported_value=6.1
compound="Cc1cc(C)n(CC2CCCCN2C(=O)c2ccc3c(c2)OCO3)n1 (stereo not drawn)" parameter="Percent Effect" reported_value=-5.42

We next turn to a different compound, shown below.
Percent Effect in this record for Cc1ccc(NC2CCN(C(=O)Cc3cccc(F)c3)CC2)nn1 : 11.3

###

Target: Aspartate--tRNA(Asp/Asn) ligase (Mycobacterium tuberculosis (strain ATCC 25618 / H37Rv)) (UniProt P9WFW3); also: in the data most compounds retested in dose-response had high values
Sequence (whole entry): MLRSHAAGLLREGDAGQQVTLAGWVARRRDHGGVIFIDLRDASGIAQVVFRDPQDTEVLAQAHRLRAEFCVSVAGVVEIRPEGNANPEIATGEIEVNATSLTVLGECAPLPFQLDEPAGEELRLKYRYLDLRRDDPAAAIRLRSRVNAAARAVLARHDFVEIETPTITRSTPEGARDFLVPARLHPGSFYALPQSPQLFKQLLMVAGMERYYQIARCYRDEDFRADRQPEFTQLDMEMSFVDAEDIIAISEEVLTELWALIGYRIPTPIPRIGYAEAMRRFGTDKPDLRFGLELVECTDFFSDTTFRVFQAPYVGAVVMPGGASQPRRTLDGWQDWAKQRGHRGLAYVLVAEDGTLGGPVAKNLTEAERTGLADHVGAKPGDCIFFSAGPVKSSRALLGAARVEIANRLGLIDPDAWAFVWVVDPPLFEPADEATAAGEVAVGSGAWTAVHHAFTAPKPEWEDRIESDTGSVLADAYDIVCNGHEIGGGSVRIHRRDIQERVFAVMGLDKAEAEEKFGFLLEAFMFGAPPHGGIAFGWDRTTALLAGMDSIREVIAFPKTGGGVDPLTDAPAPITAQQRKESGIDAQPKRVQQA
Experiment: Assay for Asp RNA synthetase-1 from Mycobacterium tuberculosis
Assay type: functional
Parameters: scale not given: direction of the effect not stated beside the values
Conditions: 30 µM
Quick reference for Percent Effect among some compounds
Unit % implied. Number only.

compound=CC(C)CN1CCC2(CC1)C(=O)Nc1ccc(C(=O)N(C)C)cc12 endpoint_unit=% reported_value=-0.578

Looking up Cc1cc2c(=O)n3c(nc2s1)CCN(C(=O)c1ccncc1)CC3 , I found its Percent Effect recorded as 0.789

Form: compound = CN1CCN(Cc2ccoc2)Cc2cccnc21 ; Percent Effect = 3.07
